System: NCI-H460
Assay: Cytotoxicity against human H460 cells assessed as growth inhibition after 48 hrs by sulforhodamine B assay
Assay type: functional
Settings: NCI-H460, 48 h
Readout Name: GI50 (µg/mL)
// units = µg/mL; emit number, no label

Problem: I would be grateful if you could share the reported GI50 for `COc1cc(C(=O)NNC(=O)c2ccc3[nH]c(-c4ccc([N+](=O)[O-])s4)nc3c2)cc(OC)c1OC` .
Result: 62.5

Problem: I would be grateful if you could share the reported GI50 for `O=CNNC(=O)c1ccc2[nH]c(-c3ccc([N+](=O)[O-])o3)nc2c1` .
Result: 31.2

Problem: I would be grateful if you could share the reported GI50 for `COc1cc(C(=O)NNC(=O)c2ccc3[nH]c(-c4ccc([N+](=O)[O-])o4)nc3c2)cc(OC)c1OC` .
Result: 31.2

* * *

Each entry below lists one item and its recorded GI50 value.
Test system: NCI-H460
Assay: Cytotoxicity against human H460 cells assessed as growth inhibition after 48 hrs by sulforhodamine B assay
Format: functional
Settings: NCI-H460, 48 h
// units = µg/mL; emit number, no label

1. COc1cccc(C(=O)NNC(=O)c2ccc3[nH]c(-c4ccc([N+](=O)[O-])o4)nc3c2)c1 ... 62.5
2. COc1cccc(C(=O)NNC(=O)c2ccc3[nH]c(-c4ccc([N+](=O)[O-])s4)nc3c2)c1 ... 62.5

Problem: I would be grateful if you could share the reported GI50 for `COc1ccc(C(=O)NNC(=O)c2ccc3[nH]c(-c4ccc([N+](=O)[O-])o4)nc3c2)cc1OC` .
Result: 15.6

Problem: I would be grateful if you could share the reported GI50 for `O=C(NNC(=O)c1ccc2[nH]c(-c3ccc([N+](=O)[O-])o3)nc2c1)c1ccccc1` .
Result: 62.5

Problem: I would be grateful if you could share the reported GI50 for `O=C(NNC(=O)c1cc2ccccc2cc1O)c1ccc2[nH]c(-c3ccc([N+](=O)[O-])s3)nc2c1` .
Result: 62.5

Problem: I would be grateful if you could share the reported GI50 for `O=C(O)c1ccc2[nH]c(-c3ccc([N+](=O)[O-])o3)nc2c1` .
Result: 125

* * *

Tested on: Plasmodium berghei
Experiment: Antimalarial activity against chloroquine-susceptible Plasmodium berghei ANKA assessed as inhibition of trophozoite extract-mediated mouse hemoglobin hydrolysis at 10 mM after 18 hrs by SDS-PAGE
Format: functional
Readout Name: inhibition at 10000 µM (%)
// units = %; emit number, no label

Please review the entries below; each comes with its answer.
1) CC(=O)N[C@@H](CC(C)C)C(=O)N[C@@H](CC(C)C)C(=O)N[C@H](C=O)CCCNC(=N)N [LEUPEPTIN] ... 91.6
2) COc1ccc(C(=O)NNC(=O)c2ccc3[nH]c(-c4ccc([N+](=O)[O-])s4)nc3c2)cc1OC ... 38.2
3) O=C(NNC(=O)c1cc2ccccc2cc1O)c1ccc2[nH]c(-c3ccc([N+](=O)[O-])o3)nc2c1 ... 12.9
4) O=C(NNC(=O)c1ccc2[nH]c(-c3ccc([N+](=O)[O-])o3)nc2c1)c1ccc(Cl)cc1 ... 33.8
5) O=C(O)c1ccc2[nH]c(-c3ccc([N+](=O)[O-])o3)nc2c1 ... 0

Problem: I would be grateful if you could share the reported inhibition at 10000 µM for `O=C(NNC(=O)c1ccc2[nH]c(-c3ccc([N+](=O)[O-])o3)nc2c1)c1cccc(Cl)c1` .
Result: 39

Problem: I would be grateful if you could share the reported inhibition at 10000 µM for `O=C(NNC(=O)c1ccc2[nH]c(-c3ccc([N+](=O)[O-])o3)nc2c1)c1ccccc1` .
Result: 0

Problem: I would be grateful if you could share the reported inhibition at 10000 µM for `COc1ccc(C(=O)NNC(=O)c2ccc3[nH]c(-c4ccc([N+](=O)[O-])o4)nc3c2)cc1OC` .
Result: 34.5

Problem: I would be grateful if you could share the reported inhibition at 10000 µM for `O=C(NNC(=O)c1ccc2[nH]c(-c3ccc([N+](=O)[O-])s3)nc2c1)c1cccc(Oc2ccccc2)c1` .
Result: 0

Problem: I would be grateful if you could share the reported inhibition at 10000 µM for CCN(CC)CCCC(C)Nc1ccnc2cc(Cl)ccc12 (configuration not stated) [CHLOROQUINE] .
Result: 24.1

Problem: I would be grateful if you could share the reported inhibition at 10000 µM for `O=C(NNC(=O)c1ccc2[nH]c(-c3ccc([N+](=O)[O-])s3)nc2c1)c1ccc(Cl)cc1` .
Result: 12.7

Problem: I would be grateful if you could share the reported inhibition at 10000 µM for `O=CNNC(=O)c1ccc2[nH]c(-c3ccc([N+](=O)[O-])o3)nc2c1` .
Result: 24.2

* * *

Test: Cytotoxicity against mouse 3T3 cells assessed as growth inhibition after 48 hrs by sulforhodamine B assay
Type: cell-based
Settings: NIH3T3 cells
Each entry below lists one item and its recorded GI50 at 48 h value.
// units = µg/mL; emit number, no label

1. COc1cc(C(=O)NNC(=O)c2ccc3[nH]c(-c4ccc([N+](=O)[O-])o4)nc3c2)cc(OC)c1OC ... 31.2

Problem: I would be grateful if you could share the reported GI50 at 48 h for `COc1ccc(C(=O)NNC(=O)c2ccc3[nH]c(-c4ccc([N+](=O)[O-])o4)nc3c2)cc1OC` .
Result: 31.2

Problem: I would be grateful if you could share the reported GI50 at 48 h for `O=C(NNC(=O)c1cc2ccccc2cc1O)c1ccc2[nH]c(-c3ccc([N+](=O)[O-])s3)nc2c1` .
Result: 31.2

Problem: I would be grateful if you could share the reported GI50 at 48 h for `O=CNNC(=O)c1ccc2[nH]c(-c3ccc([N+](=O)[O-])o3)nc2c1` .
Result: 62.5

Problem: I would be grateful if you could share the reported GI50 at 48 h for `COc1cccc(C(=O)NNC(=O)c2ccc3[nH]c(-c4ccc([N+](=O)[O-])o4)nc3c2)c1` .
Result: 15.6

Problem: I would be grateful if you could share the reported GI50 at 48 h for `COc1cc(C(=O)NNC(=O)c2ccc3[nH]c(-c4ccc([N+](=O)[O-])s4)nc3c2)cc(OC)c1OC` .
Result: 31.2

Problem: I would be grateful if you could share the reported GI50 at 48 h for `O=C(O)c1ccc2[nH]c(-c3ccc([N+](=O)[O-])o3)nc2c1` .
Result: 62.5

Problem: I would be grateful if you could share the reported GI50 at 48 h for `COc1cccc(C(=O)NNC(=O)c2ccc3[nH]c(-c4ccc([N+](=O)[O-])s4)nc3c2)c1` .
Result: 15.6

Problem: I would be grateful if you could share the reported GI50 at 48 h for `O=C(NNC(=O)c1ccc2[nH]c(-c3ccc([N+](=O)[O-])o3)nc2c1)c1ccccc1` .
Result: 31.2

* * *

Test: Cytotoxicity against african green monkey Vero cells assessed as growth inhibition after 48 hrs by sulforhodamine B assay
Format: cell-based
Settings: chlorocebus sabaeus
Each entry below lists one item and its recorded GI50 at 48 h value.

1. O=C(NNC(=O)c1ccc2[nH]c(-c3ccc([N+](=O)[O-])o3)nc2c1)c1cccc(Oc2ccccc2)c1 ... > 7.8 µg/mL

Problem: I would be grateful if you could share the reported GI50 at 48 h for `COc1cccc(C(=O)NNC(=O)c2ccc3[nH]c(-c4ccc([N+](=O)[O-])s4)nc3c2)c1` .
Result: > 250 µg/mL

Problem: I would be grateful if you could share the reported GI50 at 48 h for `O=C(O)c1ccc2[nH]c(-c3ccc([N+](=O)[O-])o3)nc2c1` .
Result: > 250 µg/mL

* * *

System: Plasmodium berghei
Experiment: Antimalarial activity against chloroquine-susceptible Plasmodium berghei ANKA assessed as inhibition of trophozoite extract-mediated mouse hemoglobin hydrolysis at 10 mM after 18 hrs by SDS-PAGE
Assay type: functional
inhibition at 10000 µM vs 3%: at or above is met, below is not met.

Example entries and their recorded answers appear below.
1) COc1cccc(C(=O)NNC(=O)c2ccc3[nH]c(-c4ccc([N+](=O)[O-])o4)nc3c2)c1 ... not met
2) CC(C)CC(=O)N[C@H](C(=O)N[C@H](C(=O)N[C@@H](CC(C)C)[C@@H](O)CC(=O)N[C@@H](C)C(=O)N[C@@H](CC(C)C)[C@@H](O)CC(=O)O)C(C)C)C(C)C ... met
3) O=C(NNC(=O)c1cc2ccccc2cc1O)c1ccc2[nH]c(-c3ccc([N+](=O)[O-])s3)nc2c1 ... met
4) O=C(NNC(=O)c1ccc2[nH]c(-c3ccc([N+](=O)[O-])s3)nc2c1)c1cccc(Cl)c1 ... met

Please examine the following record next.
Problem: Confirm if inhibition at 10000 µM reported for the molecule `COc1cc(C(=O)NNC(=O)c2ccc3[nH]c(-c4ccc([N+](=O)[O-])o4)nc3c2)cc(OC)c1OC` is 3% or above.
Result: not met

The reported numbers originate from ChEMBL document CHEMBL1681759.
